Tested on: MS2 coat protein
Experiment: apparent KD of MS2 coat protein; designed switch direction (-1 OFF switch, 1 ON switch): -1; higher = weaker reporter binding
Conditions: input ligand: FMN 200 uM
Consider the reported apparent KD of MS2 coat protein of an entry and match it to a band in I (below 30 nM), II (30 nM to below 300 nM), III (300 nM or more)

Examples with answers:
{"columns": ["Record sequence", "Assigned class"],
 "data": [
  ["AUAAAACGAGGAUAUGCUGGGCUUCUGUGAUGCAUAUGCUCACAUGAGGAUCACCCAUGUAGAAGGUGUAAAAU [Laaceve] (Eterna round: R96, puzzle: Exclusion 2)", "III"],
  ["UGCGGGCUUUUGAGACCUCACAUGAGGAUCACCCAUGUGCUCGUCUUAUGGGCCGGCCGGCCGUUGGCCGGCCGGCC [-44, -68.1 kcal, A 12%] (Eterna round: R97, puzzle: Sensor, turn-off variant 1)", "II"],
  ["UAUUAGCAAGCGAGAUCCCACAUGAGGAUCACCCAUGUGCUCGUCUUAUAAGGUACUGUGACGAAAGUCACGGUACC [Sensor 3, v1 - 95 v5] (Eterna round: R97, puzzle: Sensor, turn-off variant 1)", "I"],
  ["UUUUUAUAUGAAGGAUAUACUUAACAUGAGGAUCACCCAUGUGGUGUUGUGAGUGAGUGAGUUUAGUAGAAGGUCAAUUCUUAU [JMF's solution 82] (Eterna round: R96, puzzle: Exclusion NG 2)", "III"]
]}

INPUT: Which band does GACCUCACUGUAGGAUAUGACCGAUCCAGAGGAUCAGAAGGACAUGAGGAUCACCCAUGUGCGUGGAGGGAACGUAAGAAACAA [Eternabot solution 2] (Eterna round: R96, puzzle: Exclusion NG 1) fall in?
OUTPUT: III

INPUT: Which band does ACAUGACAGCUAGGAUAUAAAUGACAUGAGGAUCACCCAUGUUGUCCCAUGUUGACGAUCACCGAUUAGAAGGAGCCACCCAUG [Ex NG2 #1] (Eterna round: R96, puzzle: Exclusion NG 2) fall in?
OUTPUT: II

INPUT: Which band does GCUCUUGGGCAAGGAUAUCCUGCGCGGUUCCGGUUCGUGUCUGUCACAUGAGGAUCACCCAUGUGGGAGAAGGUGCCUGCGGUG [Design 74] (Eterna round: R96, puzzle: Exclusion NG 2) fall in?
OUTPUT: I

INPUT: Which band does CGGAAAUCCAAGGAUAUGCUAGACGAAAGUCUAGCAGAAGGUGGAACAUGAGGAUCACCCAUGUGUCCAAUCCG [Mat - Exclusion 6 - Eli Mod - D25] (Eterna round: R97, puzzle: Exclusion 6) fall in?
OUTPUT: I

INPUT: Which band does GUCAGCUCGUCAGGAUAUGAACAUGAGGAUCACCCAUGUAAGAUCAAGCUGCUUCGGCAGCAAGUUCAGAAGGGACGAGCUGAC [ENG2/10-B1] (Eterna round: R96, puzzle: Exclusion NG 2) fall in?
OUTPUT: II

###

Test system: MS2 coat protein
Assay: apparent KD of MS2 coat protein; designed switch direction (-1 OFF switch, 1 ON switch): 1; higher = weaker reporter binding
Settings: input ligand: microRNA oligo, concentration not stated
Observable: apparent KD of MS2 coat protein
Express your answer as a number followed by its unit.

Examples from the recorded data:
{"columns": ["Record sequence", "Assayed system", "apparent KD of MS2 coat protein"],
 "data": [
  ["GAGUAGUUGAAAGGAUAUUGAUUAUUGUAGGAUCAAGAAGGUUUUAACAUGAGGAUCACCCAUGUAGGACUAUAUAUGUGAAUA [Parity 95 - Jieux - Same State NG 1] (Eterna round: R96, puzzle: Same State NG 1)", "MS2 coat protein", "12.3 nM"],
  ["GUUGAAUUGCAAGGAUAUCUUAGUCAGACGCUAAGAGAAGGUGCUUUACAGUUACAUGAGGAUCACCCAUGUCUUUCUUUUGAU [Jens NG1-01] (Eterna round: R96, puzzle: Same State NG 1)", "MS2 coat protein", "20.2 nM"],
  ["GAAUAGUUGAGAGGAUAUCUAUUAUUGUAGGAUAGAGAAGGUUUUAACAUGAGGAUCACCCAUGUAGGACUAUAUAUGUGAAUA [Parity 99 - Jieux - Same State NG 1] (Eterna round: R96, puzzle: Same State NG 1)", "MS2 coat protein", "12.5 nM"]
]}

Pending sequence:
INPUT: Name the reported apparent KD of MS2 coat protein value associated with the sequence GGUAGGUUACUACCAACACAUGAGGAUCACCCAUGUUAUGGGAAGGAUAUGGUACCUAUUUGGUACCAGAAGGUCCAGUUAAUU [Fiskers NG3ss - 16] (Eterna round: R96, puzzle: Same State NG 3)
OUTPUT: 206 nM

Provenance of the data: the supplement of paper PMC9170038
